- test protocol: Plasma exposure (average unbound plasma concentration) in rats
- Assay type: in vivo, rat
- condition parameters: Wistar Han, oral; rat, 29 days, 60 mg kg-1 once daily; average unbound plasma concentration; read-out: Avg Cp,u parent
observation type: concentration at 29 days (nM)
Express it in nM; write the number only.

Which concentration at 29 days reading was recorded for the compound COc1cnc(C(=O)Nc2ccc(F)c([C@]3(C)CS(=O)(=O)N(C)C(N)=N3)c2)cn1 [SG1, reference compound] ? 1560

###

Parameter pKa: see the listing below.
- test protocol: pKa determination by multiplexed capillary electrophoresis
- Format: physicochemical
- condition parameters: aqueous buffers, read-out: pKa
When you answer, write just the number.

Which pKa reading was recorded for the compound C[C@@]1(c2cc(-c3cncnc3)c(F)cc2F)CCSC(N)=N1 [LY2811376, reference compound] ? 8.9

***
Which pKa reading was recorded for the compound COc1cnc(C(=O)Nc2ccc(F)c([C@]3(C)CS(=O)(=O)N(C)C(N)=N3)c2)cn1 [SG1, reference compound] ? 6.9

Param item: NC1=N[C@@]2(c3cc(NC(=O)c4ccc(F)cn4)ccc3F)COC[C@H]2CS1 [LY2886721, reference compound] 7.6

###

- assay target: CatD (Homo sapiens)
- Sequence (P07339 169-412 limits assumed): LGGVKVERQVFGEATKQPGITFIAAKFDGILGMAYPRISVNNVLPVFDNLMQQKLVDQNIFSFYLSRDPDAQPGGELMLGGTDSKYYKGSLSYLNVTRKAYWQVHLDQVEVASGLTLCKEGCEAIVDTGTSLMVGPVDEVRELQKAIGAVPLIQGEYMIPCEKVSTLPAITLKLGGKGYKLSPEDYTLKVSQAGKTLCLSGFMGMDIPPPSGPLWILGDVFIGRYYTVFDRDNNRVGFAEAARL
- Sequence (P07339 65-162 limits assumed): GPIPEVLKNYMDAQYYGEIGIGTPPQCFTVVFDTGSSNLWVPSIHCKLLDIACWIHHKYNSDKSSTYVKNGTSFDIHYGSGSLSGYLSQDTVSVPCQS
- test protocol: CatD cellular assay (competition of PF-7802 photolabelling in live ARPE-19 cells)
- Type: cell-based
- Parameters: host or cells: ARPE-19
- condition parameters: live ARPE-19 cells, PF-7802 photoprobe 100 nM, 30 min
Parameter IC50: see the listing below.
Express it in nM; write the number only.

Which IC50 reading was recorded for the compound Cc1coc([C@H]2C[C@H]3[C@@H](CF)SC(N)=N[C@@]3(c3ccc(F)cc3F)CO2)n1 ? 240

***
Which IC50 reading was recorded for the compound C[C@H]1SC(N)=N[C@@]2(c3ccc(F)cc3F)CO[C@@H](c3cc(CO)no3)C[C@@H]12 ? 110

Param item: NC1=N[C@@]2(c3ccc(F)cc3F)CO[C@@H](c3nc(CO)co3)C[C@H]2[C@@H](CF)S1 580

Param item: Cc1cc([C@H]2C[C@H]3[C@@H](CF)SC(N)=N[C@@]3(c3ccc(F)cc3F)CO2)on1 540

###

- test protocol: Plasma exposure (average unbound plasma concentration) in rats
- Type: in vivo, rat
- condition parameters: Wistar Han, oral; rat, 29 days, 100 mg kg-1 once daily; average unbound plasma concentration; read-out: Avg Cp,u parent
observation type: concentration at 29 days (µM)
Express it in µM; write the number only.

Which concentration at 29 days reading was recorded for the compound NC1=N[C@@]2(c3cc(NC(=O)c4ccc(F)cn4)ccc3F)COC[C@H]2CS1 [LY2886721, reference compound] ? 3.48

###

Parameter pIC50: see the listing below.
- assay target: UniProtKB P07339
- test protocol: CatD cellular assay (competition of PF-7802 photolabelling in live ARPE-19 cells)
- Format: cell-based
- Parameters: host or cells: ARPE-19
- condition parameters: live ARPE-19 cells, PF-7802 photoprobe 100 nM, 30 min
Interpret pIC50 as the negative base-10 log of the concentration measured in mol/L.

Which pIC50 reading was recorded for the compound COc1cnc(C(=O)Nc2ccc(F)c([C@]3(C)CS(=O)(=O)N(C)C(N)=N3)c2)cn1 [SG1, reference compound] ? 5.54

Now let's try a different one.
Which pIC50 reading was recorded for the compound NC1=N[C@@]2(c3ccc(F)cc3F)CO[C@@H](c3cc(CO)no3)C[C@H]2[C@@H](CF)S1 ? 6.03

###

- assay target: BACE1 (Homo sapiens, UniProt P56817)
- test protocol: BACE1 purified enzyme fluorescence polarization assay
- Format: biochemical
- Design: His (C); made in house; host or cells: CHO-K1
- condition parameters: purified human enzyme, fluorescence polarization, peptide substrate
- Sequence (P56817 46-457): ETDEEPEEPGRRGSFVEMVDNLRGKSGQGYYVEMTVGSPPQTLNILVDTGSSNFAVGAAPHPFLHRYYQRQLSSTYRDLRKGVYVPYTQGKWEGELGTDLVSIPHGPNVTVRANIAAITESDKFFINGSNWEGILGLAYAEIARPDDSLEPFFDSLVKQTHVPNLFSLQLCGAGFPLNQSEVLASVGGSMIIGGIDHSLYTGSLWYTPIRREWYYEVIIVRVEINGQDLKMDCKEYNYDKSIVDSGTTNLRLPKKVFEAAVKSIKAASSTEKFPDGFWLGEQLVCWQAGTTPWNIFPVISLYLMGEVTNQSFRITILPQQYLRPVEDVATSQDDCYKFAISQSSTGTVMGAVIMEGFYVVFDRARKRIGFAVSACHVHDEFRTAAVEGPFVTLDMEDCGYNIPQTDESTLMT
Rule: IC50 below 60 nM gives yes, anything at or above gives no.

# example entries with known answers
Report whether reported IC50 is lower than 60 nM (strictly) for NC1=N[C@@]2(c3ccc(F)cc3F)CO[C@@H](c3nc(CO)co3)C[C@H]2[C@@H](CF)S1 no

Param item: Cc1cc([C@H]2C[C@H]3[C@@H](C)SC(N)=N[C@@]3(c3ccc(F)cc3F)CO2)on1 no

Param item: COc1cnc(C(=O)Nc2ccc(F)c([C@]3(C)CS(=O)(=O)N(C)C(N)=N3)c2)cn1 [SG1, reference compound] yes

Param item: Cc1cc([C@H]2C[C@H]3[C@@H](CF)SC(N)=N[C@@]3(c3ccc(F)cc3F)CO2)on1 no

Param item: C[C@H]1SC(N)=N[C@@]2(c3ccc(F)cc3F)CO[C@@H](c3cc(CO)no3)C[C@@H]12 no

***
Report whether reported IC50 is lower than 60 nM (strictly) for C#CCOc1ccc(C(=O)c2ccc(COC[C@H]3C[C@H]4CSC(N)=N[C@@]4(c4ccc(F)cc4F)CO3)cc2)cc1 yes

Param item: Cc1coc([C@H]2C[C@H]3[C@@H](CF)SC(N)=N[C@@]3(c3ccc(F)cc3F)CO2)n1 no

Param item: NC1=N[C@@]2(c3ccc(F)cc3F)CO[C@@H](c3cc(CO)no3)C[C@H]2[C@@H](CF)S1 no

###

Parameter pKa: see the listing below.
- test protocol: pKa determination by multiplexed capillary electrophoresis
- Format: physicochemical
- condition parameters: aqueous buffers
When you answer, write just the number.

# annotated cases, reported pKa shown
Which pKa reading was recorded for the compound Cc1cc([C@H]2C[C@H]3[C@@H](CF)SC(N)=N[C@@]3(c3ccc(F)cc3F)CO2)on1 [PF-3195] ? 7.0

Param item: Cc1coc([C@H]2C[C@H]3[C@@H](CF)SC(N)=N[C@@]3(c3ccc(F)cc3F)CO2)n1 [PF-1283] 7.0

Param item: Cc1cc([C@H]2C[C@H]3[C@@H](C)SC(N)=N[C@@]3(c3ccc(F)cc3F)CO2)on1 [PF-9283] 7.7

Param item: C[C@H]1SC(N)=N[C@@]2(c3ccc(F)cc3F)CO[C@@H](c3cc(CO)no3)C[C@@H]12 [PF-9159] 7.8

***
Which pKa reading was recorded for the compound NC1=N[C@@]2(c3ccc(F)cc3F)CO[C@@H](c3cc(CO)no3)C[C@H]2[C@@H](CF)S1 [PF-3763] ? 7.0

Param item: NC1=N[C@@]2(c3ccc(F)cc3F)CO[C@@H](c3nc(CO)co3)C[C@H]2[C@@H](CF)S1 [PF-7152] 6.9

###

Parameter BACE1 potency increase in live cells: see the listing below.
- assay target: BACE1 (Homo sapiens)
- test protocol: BACE1 biochemical cellular assay (sAPPβ ELISA in H4 cells overexpressing APP695)
- Format: cell-based
- Set-up: endogenous in cells; host or cells: H4 human neuroglioma cells overexpressing human APP695
- condition parameters: BACE1 enzyme IC50 versus BACE1 cellular IC50
- Sequence (P56817 46-501): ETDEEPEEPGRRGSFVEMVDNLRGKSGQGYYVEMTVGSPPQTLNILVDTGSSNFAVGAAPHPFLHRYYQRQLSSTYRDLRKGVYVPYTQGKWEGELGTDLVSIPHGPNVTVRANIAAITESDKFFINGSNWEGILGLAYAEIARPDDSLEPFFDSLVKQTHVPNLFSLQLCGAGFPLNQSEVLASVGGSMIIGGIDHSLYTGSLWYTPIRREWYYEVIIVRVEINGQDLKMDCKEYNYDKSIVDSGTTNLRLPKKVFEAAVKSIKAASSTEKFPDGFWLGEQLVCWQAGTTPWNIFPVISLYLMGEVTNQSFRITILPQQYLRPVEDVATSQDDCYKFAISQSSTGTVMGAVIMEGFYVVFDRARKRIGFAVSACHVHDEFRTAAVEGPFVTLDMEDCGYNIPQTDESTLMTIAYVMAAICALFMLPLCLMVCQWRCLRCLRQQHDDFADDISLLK
Express it in x; write the number only.

Which BACE1 potency increase in live cells reading was recorded for the molecule NC1=N[C@@]2(c3cc(NC(=O)c4ccc(F)cn4)ccc3F)COC[C@H]2CS1 [LY2886721, reference compound] ? 13

Param item: COc1cnc(C(=O)Nc2ccc(F)c([C@]3(C)CS(=O)(=O)N(C)C(N)=N3)c2)cn1 [SG1, reference compound] 10

Param item: C[C@H]1SC(N)=N[C@@]2(c3ccc(F)cc3F)CO[C@@H](c3cc(CO)no3)C[C@@H]12 [PF-9159] 12

Param item: C[C@@]1(c2cc(-c3cncnc3)c(F)cc2F)CCSC(N)=N1 [LY2811376, reference compound] 18

Param item: Cc1cc([C@H]2C[C@H]3[C@@H](C)SC(N)=N[C@@]3(c3ccc(F)cc3F)CO2)on1 [PF-9283] 12

###

- test protocol: Plasma exposure (average unbound plasma concentration) in rats
- Assay type: in vivo, rat
- condition parameters: Wistar Han, oral; rat, 14 days, 30 mg kg-1 once daily; average unbound plasma concentration; read-out: Avg Cp,u parent
observation type: concentration at 14 days (nM)
Express it in nM; write the number only.

Which concentration at 14 days reading was recorded for the compound Cc1cc([C@H]2C[C@H]3[C@@H](C)SC(N)=N[C@@]3(c3ccc(F)cc3F)CO2)on1 ? 29

###

- assay target: BACE1 (Homo sapiens, UniProt P56817)
- test protocol: BACE1 biochemical cellular assay (sAPPβ ELISA in H4 cells overexpressing APP695)
- Assay type: cell-based
- Set-up: endogenous in cells; host or cells: H4 human neuroglioma cells overexpressing human APP695
- condition parameters: sAPPβ ELISA, H4 neuroglioma cells with human wild-type APP
observation type: pIC50
Interpret pIC50 as the negative base-10 log of the concentration measured in mol/L.

Which pIC50 reading was recorded for the molecule NC1=N[C@@]2(c3ccc(F)cc3F)CO[C@@H](c3nc(CO)co3)C[C@H]2[C@@H](CF)S1 [PF-7152] ? 7.19

Param item: COc1cnc(C(=O)Nc2ccc(F)c([C@]3(C)CS(=O)(=O)N(C)C(N)=N3)c2)cn1 [SG1, reference compound] 9.23

Param item: C[C@H]1SC(N)=N[C@@]2(c3ccc(F)cc3F)CO[C@@H](c3cc(CO)no3)C[C@@H]12 [PF-9159] 7.77

Now let's try a different one.
Which pIC50 reading was recorded for the molecule Cc1cc([C@H]2C[C@H]3[C@@H](CF)SC(N)=N[C@@]3(c3ccc(F)cc3F)CO2)on1 [PF-3195] ? 7.82
